Taken from patent US5187157A.

Test system: normal human plasma
experimental.details: Prothrombin times (PT), blood coagulation in vitro
Type: biochemical
assay.setup: inhibitor 750 nM
Task for the reader: assign each of the following compounds its reported Prothrombin Times.
Numbers only, in s.

Before answering, review these 5 worked examples.
# compound, unit.of.measurement, Prothrombin Times
measured = [
    ("Br.CC(C)(C)OC(=O)NC(Cc1ccccc1)C(=O)N1CCCC1C(=O)NC(CCCSC(=N)N)B1OC2CC3CC(C3(C)C)C2(C)O1 (stereo not drawn)", "s", 44),
    ("CC(C)(C)OC(=O)N[C@H](Cc1ccccc1)C(=O)N[C@@H](Cc1ccccc1)C(=O)N[C@@H](CCCNC(=N)N)B1OC2CC3CC(C3(C)C)C2(C)O1.O=S(=O)(O)c1ccccc1 (stereo partly drawn)", "s", 22),
    ("Br.CC(=O)NC(Cc1ccccc1)C(=O)NC(CCCSC(=N)N)B1OC2CC3CC(C3(C)C)C2(C)O1 (stereo not drawn)", "s", 14.9),
    ("Br.CC(C)(C)OC(=O)NC(Cc1ccccc1)C(=O)NC(Cc1ccccc1)C(=O)NC(CCCSC(=N)N)B1OC2CC3CC(C3(C)C)C2(C)O1 (stereo not drawn)", "s", 17.2),
    ("CC1(C)C2CC3OB(C(CCCN=C(N)N)NC(=O)C4CCCN4C(=O)C(N)Cc4ccccc4)OC3(C)C1C2.Cl.Cl (stereo not drawn) [B, H-(D)Phe-Pro-boroArg-C10 H16.2HCl]", "s", 85.3),
]

Next compound, please.
Query: Please tell me: Prothrombin Times of CC(C)(C)OC(=O)NC(Cc1ccccc1)C(=O)N1CCCC1C(=O)NC(CCCN=C(N)N)B1OC2CC3CC(C3(C)C)C2(C)O1.O=S(=O)(O)c1ccccc1 (stereo not drawn) , system normal human plasma?
Reply: 26.7

* * *

Tested on: normal human plasma
experimental.details: Activated partial thromboplastin times (APTT), blood coagulation in vitro
Assay type: biochemical
assay.setup: inhibitor 125 nM
property: Activated Partial Thromboplastin Times
A complete answer gives the number and then names the unit.

Before answering, review these 2 worked examples.
# compound, target.desc, result.value
rows = [
    ("CC1(C)C2CC3OB(C(CCCN=C(N)N)NC(=O)C4CCCN4C(=O)C(N)Cc4ccccc4)OC3(C)C1C2.Cl.Cl (stereo not drawn) [B, H-(D)Phe-Pro-boroArg-C10 H16.2HCl]", "normal human plasma", "44.2 s"),
    ("Br.CC(C)(C)OC(=O)NC(Cc1ccccc1)C(=O)NC(Cc1ccccc1)C(=O)NC(CCCSC(=N)N)B1OC2CC3CC(C3(C)C)C2(C)O1 (stereo not shown)", "normal human plasma", "45.2 s"),
]

Field: Activated Partial Thromboplastin Times. Fill in for each record below.
1. CC(C)(C)OC(=O)NC(Cc1ccccc1)C(=O)N1CCCC1C(=O)NC(CCCN=C(N)N)B1OC2CC3CC(C3(C)C)C2(C)O1.O=S(=O)(O)c1ccccc1 (stereo not shown)
2. CC(C)(C)OC(=O)N[C@H](Cc1ccccc1)C(=O)N[C@@H](Cc1ccccc1)C(=O)N[C@@H](CCCNC(=N)N)B1OC2CC3CC(C3(C)C)C2(C)O1.O=S(=O)(O)c1ccccc1 (stereo partly shown)
3. Br.CC(=O)NC(Cc1ccccc1)C(=O)NC(CCCSC(=N)N)B1OC2CC3CC(C3(C)C)C2(C)O1 (stereo not shown)

Reply:
1. 36.6 s
2. 40.5 s
3. 36.2 s

Field: Activated Partial Thromboplastin Times. Fill in for each record below.
1. CC(=O)NC(Cc1ccccc1)C(=O)NC(CCCNC(=N)N)B1OC2CC3CC(C3(C)C)C2(C)O1.Cl (stereo not shown) [Compound F, Ac-Phe-boroArg-C10 H16.HCl]
2. Br.CC(C)(C)OC(=O)NC(Cc1ccccc1)C(=O)N1CCCC1C(=O)NC(CCCSC(=N)N)B1OC2CC3CC(C3(C)C)C2(C)O1 (stereo not shown)

Reply:
1. 35.2 s
2. 46.9 s

* * *

experimental.details: Stability of Inhibitors in Human Plasma As Measured By APTT
Format: in vitro ADME
assay.setup: incubation in human plasma 0.5 h; 250 nM in APTT assay
property: Clotting Time
A complete answer gives the number and then names the unit.

Before answering, review these 4 worked examples.
# compound, Clotting Time
records = [
    ("CC1(C)C2CC3OB(C(CCCN=C(N)N)NC(=O)C4CCCN4C(=O)C(N)Cc4ccccc4)OC3(C)C1C2.Cl.Cl (stereo not drawn) [B, H-(D)Phe-Pro-boroArg-C10 H16.2HCl]", "157.7 s"),
    ("Br.CC(C)(C)OC(=O)NC(Cc1ccccc1)C(=O)N1CCCC1C(=O)NC(CCCSC(=N)N)B1OC2CC3CC(C3(C)C)C2(C)O1 (centres unmarked)", "207.2 s"),
    ("CC(C)(C)OC(=O)NC(Cc1ccccc1)C(=O)N1CCCC1C(=O)NC(CCCN=C(N)N)B1OC2CC3CC(C3(C)C)C2(C)O1.O=S(=O)(O)c1ccccc1 (centres unmarked)", "84.7 s"),
    ("CC(=O)NC(Cc1ccccc1)C(=O)NC(CCCNC(=N)N)B1OC2CC3CC(C3(C)C)C2(C)O1.Cl (centres unmarked) [Compound F, Ac-Phe-boroArg-C10 H16.HCl]", "76.4 s"),
]

Query: Field request: Clotting Time | item: CC(C)(C)OC(=O)N[C@H](Cc1ccccc1)C(=O)N[C@@H](Cc1ccccc1)C(=O)N[C@@H](CCCNC(=N)N)B1OC2CC3CC(C3(C)C)C2(C)O1.O=S(=O)(O)c1ccccc1 (some centres unmarked)
Reply: 73.2 s

* * *

experimental.details: Stability of Inhibitors in Human Plasma As Measured By APTT
Assay type: in vitro ADME
assay.setup: incubation in human plasma 1 h; 250 nM in APTT assay
I'd appreciate it if you marked entries label 1 when Clotting Time is lower than 80 s and label 0 when it is not.

Example entries and their recorded answers appear below.
# compound, label.class
measured = [
    ("Br.CC(C)(C)OC(=O)NC(Cc1ccccc1)C(=O)N1CCCC1C(=O)NC(CCCSC(=N)N)B1OC2CC3CC(C3(C)C)C2(C)O1 (stereo not drawn) [C, Boc-(D)Phe-Pro-boroIrg-C10 H16.HBr]", "label 0"),
    ("CC(=O)NC(Cc1ccccc1)C(=O)NC(CCCNC(=N)N)B1OC2CC3CC(C3(C)C)C2(C)O1.Cl (centres unmarked) [Compound F, Ac-Phe-boroArg-C10 H16.HCl]", "label 1"),
    ("CC1(C)C2CC3OB(C(CCCN=C(N)N)NC(=O)C4CCCN4C(=O)C(N)Cc4ccccc4)OC3(C)C1C2.Cl.Cl (stereo not drawn) [B, H-(D)Phe-Pro-boroArg-C10 H16.2HCl]", "label 0"),
]

Query: Given the entry CC(C)(C)OC(=O)N[C@H](Cc1ccccc1)C(=O)N[C@@H](Cc1ccccc1)C(=O)N[C@@H](CCCNC(=N)N)B1OC2CC3CC(C3(C)C)C2(C)O1.O=S(=O)(O)c1ccccc1 (some centres unmarked) [E] , would its reported Clotting Time be below 80 s?
Reply: label 1

* * *

target.desc: Human plasma kallikrein (Homo sapiens)
Construct: purchased Protogen AG (Switzerland)
Sequence (P03952 391-638 limits assumed): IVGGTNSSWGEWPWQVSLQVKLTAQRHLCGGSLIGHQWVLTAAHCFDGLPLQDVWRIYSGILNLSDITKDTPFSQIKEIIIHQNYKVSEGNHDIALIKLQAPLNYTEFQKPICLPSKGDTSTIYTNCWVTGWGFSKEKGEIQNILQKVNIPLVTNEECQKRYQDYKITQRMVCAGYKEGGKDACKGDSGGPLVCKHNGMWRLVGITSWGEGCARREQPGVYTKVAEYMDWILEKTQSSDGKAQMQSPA
Sequence (P03952 20-390 partner limits assumed): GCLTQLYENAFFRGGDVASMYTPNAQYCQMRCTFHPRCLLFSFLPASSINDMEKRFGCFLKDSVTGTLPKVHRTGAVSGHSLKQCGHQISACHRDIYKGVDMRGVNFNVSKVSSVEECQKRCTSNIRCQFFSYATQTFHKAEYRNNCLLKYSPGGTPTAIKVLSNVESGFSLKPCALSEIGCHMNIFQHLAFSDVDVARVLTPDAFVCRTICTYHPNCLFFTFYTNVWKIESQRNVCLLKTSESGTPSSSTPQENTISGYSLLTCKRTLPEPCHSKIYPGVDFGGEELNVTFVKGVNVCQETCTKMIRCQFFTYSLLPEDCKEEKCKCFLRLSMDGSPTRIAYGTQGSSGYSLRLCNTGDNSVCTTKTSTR
experimental.details: Inhibition of Human Plasma Kallikrein
Assay type: biochemical
assay.setup: inhibitor 10 nM; activity remaining 10 to 20 min after initiation
Residues, ends and D or L forms follow the SMILES beside them. *: point of attachment. X1 = CC1(C)C2CC3OB(C(CCCNC(=N)N)N*)OC3(C)C1C2; Boc = CC(C)(C)OC(=O)*
Task for the reader: assign each of the following compounds its reported Percent Activity.
Answers are plain numbers, in %.

# compound, result.value
data = [
    ("CC(C)(C)OC(=O)N[C@H](Cc1ccccc1)C(=O)N[C@@H](Cc1ccccc1)C(=O)N[C@@H](CCCNC(=N)N)B1OC2CC3CC(C3(C)C)C2(C)O1.O=S(=O)(O)c1ccccc1 (some centres unmarked)", 5.2),
    ("CC1(C)C2CC3OB(C(CCCNC(=N)N)NC(=O)C(Cc4ccccc4)NC(=O)C4CCCN4C(=O)c4ccccc4)OC3(C)C1C2.O=S(=O)(O)c1ccccc1 (centres unmarked)", 15),
    ("Cl.NC(N)=NCCC[C@H](NC(=O)[C@H](Cc1ccccc1)NC(=O)[C@@H]1CCCN1C(=O)c1ccccc1)B(O)O [Bz--Pro--Phe--boroArg--OH.HCl, Bz-Pro-Phe-boroArg-OH.HCl]", 16),
]

Field: Percent Activity. Fill in for each record below.
1. CC(=O)NC(Cc1ccccc1)C(=O)NC(CCCNC(=N)N)B1OC2CC3CC(C3(C)C)C2(C)O1.Cl (centres unmarked) [Compound F, Ac-Phe-boroArg-C10 H16.HCl]
2. CC(C)CC(NC(=O)CNC(=O)C(CC(C)C)NC(=O)OC(C)(C)C)C(=O)NC(C)C(=O)NC(CCCNC(=N)N)B1OC2CC3CC(C3(C)C)C2(C)O1.O=S(=O)(O)c1ccccc1 (centres unmarked) (Boc-LGLA-X1; configuration not given here)

Reply:
1: 48; 2: 30
